system: MS2 coat protein; assay: apparent Kd, MS2 coat protein; higher = weaker binding; RNA-MaP array; theophylline 2 mM where present; conditions: ligand present: theophylline; designed as: OFF switch for theophylline
// label = yes (1) if apparent Kd is not less than 0.09 µM, otherwise no (0)

INSERT INTO measurements (biopolymer_sequence, experimental_system, class_assignment) VALUES
  ('AUUAUCAUGGUCAUAUAUAUUUCGUCAGAUACCAGACUAGAUAUAGUCCCUUGGCAGCUGUUACAUGAGGAUCACCCAUGUUAUU', 'MS2 coat protein', 'no (0)'),
  ('GAUGAUAUUGCAGAUACCAGACACAUGAGGAUCACCCAUGUCGCUGGGUUACUGGAUCGUGUCCCUUGGCAGCUGCGAUAUCAUC', 'MS2 coat protein', 'no (0)'),
  ('GAUGAUAUUGCAGAUACCAGACACAUGAGGAUCACCCAUGUCGCUGGGUUACUGGGUCGUGUCCCUUGGCAGCUGCGAUAUCAUC', 'MS2 coat protein', 'yes (1)'),
  ('GAUGAACUAUUUGAUACCAGACUACAUGAGGAUCACCCAUGUGAGUUUAUACUUCUGUCAGUCCCUUGGCAGCAAAUAGUUUAUC', 'MS2 coat protein', 'yes (1)'),
  ('ACGAACGAUAGUGAUACCAGACGUACAUGAGGAUCACCCAUGUUAUACACAUGGUUUAUUGUCCCUUGGCAGCACGUUAAGUUCG', 'MS2 coat protein', 'yes (1)'),
  ('AGCCUCAUACAUGAGGAUCACCCAUGUGAUACCAGUCAGGAAACUGACCCUUGGCAGCGCAUGAGGAUCACCCAUGUGCGAGGCA', 'MS2 coat protein', 'yes (1)'),
  ('UAUAUAUAUAUUGAUACCAGCAGAGAAAACGUUUAUCCUAACAUGAGGAUCACCCAUGUAUGCCCUUGGCAGCGGUAUAUAUAUA', 'MS2 coat protein', 'no (0)'),
  ('UCUUUCUAUAGUGAUACCAGACGUACAUGAGGAUCACCCAUGUUACAUUCUUGGUUAAAAGUCCCUUGGCAGCACGAUUUGUUCG', 'MS2 coat protein', 'no (0)'),
  ('GCACCAGGUACGGAUACCAGACGUUGCCAAACAGGGUGACAUGAGGAUCACCCAUGUACUGUCCCUUGGCAGCCGUACCUGGUGC', 'MS2 coat protein', 'yes (1)'),
  ('AAACGUUGCUGCGAUACCAGACAUGAGGAUCACCCAUGUACCAAGGUAAGAAAAUAACAUGUCCCUUGGCAGCGCAGCAACGAAA', 'MS2 coat protein', 'yes (1)');

Query string: Please check the record `GAGCUGAUGUAGAAAUUUUAUUUAUGAGAUACCAGUACAGAAAUGUACCCUUGGCAGCUCAUUUUUACAUGAGGAUCACCCAUGU` and state if its apparent Kd is at or above 0.09 µM.
Result string: no (0)

Query string: Does the sequence `AGCUCAGAGAGUGAUACCAGACUACAUGAGGAUCACCCAUGUUACUUUUAAAUAUCAUGAGUCCCUUGGCAGCACAAGAAGAGCA` have recorded apparent Kd that is 0.09 µM or more?
Result string: yes (1)

Query string: Identify whether the reported apparent Kd of the following sequence is 0.09 µM or greater: `UGACAUUGCUCAGAUACCAGACAUGAGGAUCACCCAUGUACCAAGGUAACCGAAAGGCAUGUCCCUUGGCAGCUGAGCAAUGUCU`
Result string: yes (1)

---

test system: MS2 coat protein; experiment: apparent Kd, MS2 coat protein; higher = weaker binding; RNA-MaP array; theophylline 2 mM where present; conditions: ligand present: theophylline; designed as: ON switch for theophylline
Give measured apparent Kd for each item. Keep answers brief.
Give bare numbers, in nM.

INSERT INTO measurements (biopolymer_sequence, endpoint_unit, observed_measurement) VALUES
  ('AUAACAUGAGGAUCACCCAUGUAAGGUGAUACCAGACGAAGUAAAGUCCCUUGGCAGCACAAGCAUAGUUGCGAAUAUUGAUAGA', 'nM', 63.1);

Consider the following items and state reported apparent Kd for each.
1. UCGUGUAUUUCGGAUACCAGUGAAAUCGAUACAUGAGGAUCACCCAUGUGAGAGGAUGUACACCCUUGGCAGCUGUCUGUAUCUG
2. UCUUUCUAUGUAGAUACCAGCAUGUUAUCUUUCUUUUGACAUGAGGAUCACCCAUGUAAAUGCCCUUGGCAGCUACAUUUUCUUU
3. UGAUCCUACAGAGAUACCAGUGCCACUGAGUGACCAGACACAUGAGGAUCACCCAUGUAACACCCUUGGCAGCUCAACUAGAGGG
4. UGCAUCAUAAUCAUGUAGGUGCUAGGUGAUACCAGCAUCGAAAGAUGCCCUUGGCAGCACCAACAUGAGGAUCACCCAUGUAAUA
5. AUUUAUUGUCGUGAUACCAGACAUACAUGAGGAUCACCCAUGUUAAGUAACUUUUUUCAGGUCCCUUGGCAGCACUUUUUAAUUA
6. ACUCGGUGUUUGUUGCUCCGAGUGUAUGAUACCAGUUAGUUUUAUGGCCCUUGGCAGCAUAGGACAUGAGGAUCACCCAUGUGUU
7. AACAUGAGGAUCACCCAUGUGUCCCUUGAUACCAGUCCCAUGUGAGACCCUUGGCAGCAAACAUGAGGAUCACCCAUGUCCCAUG
8. AUCUCAUAGAGUGAUACCAGACUACAUGAGGAUCACCCAUGUUAGAUUUAAAUAUCAUUUGUCCCUUGGCAGCACAUUAAGUACA

Result string:
1: 15.2; 2: 15.4; 3: 69.7; 4: 97.1; 5: 13.9; 6: 45.7; 7: 142; 8: 11.5

Quick batch: apparent Kd for everything below.
1. AAGACAUGAGGAUCACCCAUGUGGAGGGAUACCAGCCUGUGUGUGGGCCCUUGGCAGCUUAAAUUUAAUUUAAUUAAAUAAAUUU
2. GCUGUAAGUGCAGAUACCAGCAAGUGAUAUUUCAUAUGACAUGAGGAUCACCCAUGUAACUGCCCUUGGCAGCUGCACUUACAGC
3. UACACAUGACAUGAUACCAGCCCAUGUGAACAUGAGGAUCACCCAUGUAUGAGGACAUGAGGCCCUUGGCAGCAUGUAUACAUGA

Result string:
[36.1, 24.9, 10.2]

// each listed sequence needs a value for apparent Kd
1. AGAUCUUUCGAAAGAAGGAUCUUGGCUGAUACCAGAGACGAAAGUCUCCCUUGGCAGCAGUGCCAACAUGAGGAUCACCCAUGUA
2. AGCAUGUUAUCAGAUACCAGACAUCUUUUAAAACAUAUUACAUGAGGAUCACCCAUGUUGGUCCCUUGGCAGCUGAAAUAUUUCA

Result string:
24.1
39.8

---

Answer each item with its documented apparent Kd.
system: MS2 coat protein; assay: apparent Kd, MS2 coat protein; higher = weaker binding; RNA-MaP array; theophylline 2 mM where present; details: ligand present: theophylline; designed as: OFF switch for theophylline
Numbers only, in nM.

INSERT INTO measurements (biopolymer_sequence, endpoint_unit, observed_measurement) VALUES
  ('CAUAUUGUAACUGAUACCAGUGUACUGACAUGAGGAUCACCCAUGUUGGGUUUUGUUGUACACCCUUGGCAGCAGAAUCAAUAUG', 'nM', 89.2);

Hi! Can you tell me apparent Kd for each of these sequences?
1. CCAUAAGUAACUGAUACCAGUGUACUGACAUGAGGAUCACCCAUGUUGGGUUUUGUUGUACACCCUUGGCAGCAGAAUCUUGUGG
2. AUAAGUAAUGUUUCGUGUUUUAUUACAGAUACCAGACUAUACGUUGUCCCUUGGCAGCUGGAUUACAUGAGGAUCACCCAUGUUG
3. ACUAGCGCACAUGAUACCAGCGACAUGAGGAUCACCCAUGUACGGCGUGUAUCGAAAGGUUGCCCUUGGCAGCAUGAUAGCGCUG
4. AGACAUGAGGAUCACCCAUGUAGCAUGGAUACCAGAUCCAGAUUUAUCCCUUGGCAGCUGUGGUAAAGUGAUGGAUUGCUCCUAG
5. AAGCUGACAAGAAGGUGUUCCUAAGCUGAUACCAGCCUGGAAACAGGCCCUUGGCAGCAGCACAUGAGGAUCACCCAUGUAAUAA

Result string:
90.3
35.1
255
55.5
79.2
